pIC50: −log10 of the molar value.
The molecules below have reported pIC50 for Acetylcholinesterase (Electrophorus electricus, UniProt O42275).

Sample answers from the record:
molecule | pIC50
c1ccc2c3c([nH]c2c1)CN(CCCCCN1CCc2c([nH]c4ccccc24)C1)CC3 | < 6.00
CC12CC3CC(C)(C1)CC(N)(C3)C2 [MEMANTINE] | < 5.00
c1ccc2c(c1)c1ccncc1n2CCCCCn1c2ccccc2c2ccncc21 | < 5.00

Q) Item CCn1c2ccccc2c2ccncc21 has what recorded pIC50?
A) < 6.00

Q) Again, but for c1ccc2c3c([nH]c2c1)CN(CCCCCCCCCCN1CCc2c([nH]c4ccccc24)C1)CC3
A) < 6.00

Q) Also, C[n+]1ccc2c(c1)[nH]c1ccccc12 please.
A) < 5.00

----------
- protocol: Cytotoxicity against mouse L12-G10 cells at 50 uM by MTT assay
- Format: cell-based
- measurementParameters: l12-g10, 50 µM
Listed here: items and their measured Activity.
In your response, the unit should come after the numeric value.

Example results:
smilesNotation | Activity
C[n+]1ccc2c3ccccc3n(CCCCCCCCCn3c4ccccc4c4cc[n+](C)cc43)c2c1.[I-].[I-] | 78.9%
[Br-].[Br-].c1ccc2c(c1)[nH]c1c[n+](CCCCCCC[n+]3ccc4c(c3)[nH]c3ccccc34)ccc12 | 80.1%

As a next step, examine the molecule that follows.
Q) Consider the molecule [Br-].[Br-].c1ccc2c(c1)[nH]c1c[n+](CCCC[n+]3ccc4c(c3)[nH]c3ccccc34)ccc12 and give its measured Activity.
A) 78.2%
